subject_of_test: Glucocorticoid receptor (Homo sapiens) (UniProt P04150)
Sequence (P04150 whole entry, looked up): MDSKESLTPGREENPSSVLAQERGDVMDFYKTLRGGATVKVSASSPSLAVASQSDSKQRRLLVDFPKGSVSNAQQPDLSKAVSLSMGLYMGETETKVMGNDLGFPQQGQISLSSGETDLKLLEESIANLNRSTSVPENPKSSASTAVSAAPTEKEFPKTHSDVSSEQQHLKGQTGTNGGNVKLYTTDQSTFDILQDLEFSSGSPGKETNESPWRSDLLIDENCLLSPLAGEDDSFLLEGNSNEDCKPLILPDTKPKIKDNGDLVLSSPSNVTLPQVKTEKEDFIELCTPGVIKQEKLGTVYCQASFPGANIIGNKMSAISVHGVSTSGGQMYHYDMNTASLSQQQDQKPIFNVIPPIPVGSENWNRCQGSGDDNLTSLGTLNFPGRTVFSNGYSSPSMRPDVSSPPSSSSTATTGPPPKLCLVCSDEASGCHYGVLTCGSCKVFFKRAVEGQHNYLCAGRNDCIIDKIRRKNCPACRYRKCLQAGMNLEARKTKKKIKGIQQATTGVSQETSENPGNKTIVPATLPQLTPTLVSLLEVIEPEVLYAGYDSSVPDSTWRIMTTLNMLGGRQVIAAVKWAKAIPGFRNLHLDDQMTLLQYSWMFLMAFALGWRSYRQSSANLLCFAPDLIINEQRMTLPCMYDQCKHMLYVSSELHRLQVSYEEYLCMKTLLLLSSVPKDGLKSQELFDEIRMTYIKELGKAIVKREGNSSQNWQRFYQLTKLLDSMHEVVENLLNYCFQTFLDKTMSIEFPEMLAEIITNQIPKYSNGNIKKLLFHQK
protocol_details: GR-GFP Redistribution (AID 450); note: potency is the fitted concentration of half-maximal effect
recorded_conditions: U2OS GR-GFP nuclear translocation, laser cytometry, 2 h
Active and inactive are the calls of the source.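 Rule for the calls: active = compounds whose dose series gives a full or clear partial fitted curve of increased nuclear translocation; inconclusive = weak partial curve or effect only at the top dose; inactive = no dose-dependent translocation response.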
Quick reference: Potency of the listed items.

Previously resolved entries follow.
CN1CCN(c2cc(-c3ccccc3C(F)(F)F)ncn2)CC1: > 46 µM (inactive)
CCNc1ncc2nc(-c3cn(C)c4ccccc34)c(=O)n(-c3ccccc3)c2n1: > 9.22 µM (inactive)
O=c1c(-c2ccc(Cl)cc2)nc2cnc(N3CCOCC3)nc2n1-c1ccccc1: > 9.22 µM (inactive)
COc1cccc(-c2nc(N3CCN(C)CC3)c3ccccc3n2)c1: > 46 µM (inactive)

Value lookup for Potency; key = COc1ccccc1-c1cncnc1NCc1cccnc1
> 46 µM (inactive)

Value lookup for Potency; key = CN(C)c1ncc2nc(-c3ccc(F)cc3)c(=O)n(C[C@H]3CCCO3)c2n1
> 9.22 µM (inactive)

Value lookup for Potency; key = COCCn1c(=O)c(CCc2ccccc2)nc2cnc(N3CCNCC3)nc21
> 9.22 µM (inactive)

Value lookup for Potency; key = COc1cccc(-c2ccc3ncnc(NCc4cccnc4)c3c2)c1
> 46 µM (inactive)

Value lookup for Potency; key = Cc1nc2cnc(N3CCN(C)CC3)nc2n(-c2ccccc2)c1=O
> 9.22 µM (inactive)

Value lookup for Potency; key = Clc1ccccc1-c1ccc2ncnc(NCc3cccnc3)c2c1
> 46 µM (inactive)

Value lookup for Potency; key = CCNc1ncc2nc(C)c(=O)n(CCC#N)c2n1
> 9.22 µM (inactive)

Value lookup for Potency; key = FC(F)(F)c1ccccc1-c1nc(NCc2cccs2)c2ccccc2n1
> 46 µM (inactive)

Value lookup for Potency; key = Cc1cnc(CNc2ccnc(-c3ccccc3CN(C)C)n2)cn1
> 46 µM (inactive)

Value lookup for Potency; key = COCCNc1ncncc1-c1c(C)noc1C
> 46 µM (inactive)

Value lookup for Potency; key = CN(C)c1ncnc2ccc(-c3ccoc3)cc12
> 46 µM (inactive)

* * *

subject_of_test: Phospholipid hydroperoxide glutathione peroxidase GPX4 (Homo sapiens) (UniProt P36969)
Sequence (P36969 whole entry, looked up): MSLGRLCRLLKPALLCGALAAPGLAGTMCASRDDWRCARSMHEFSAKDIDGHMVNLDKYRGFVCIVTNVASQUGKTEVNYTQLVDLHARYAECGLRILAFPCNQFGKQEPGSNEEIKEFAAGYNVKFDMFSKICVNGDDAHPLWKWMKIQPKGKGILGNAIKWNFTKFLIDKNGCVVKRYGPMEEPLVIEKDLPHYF
protocol_details: Primary qHTS Assay for Inhibitors of Recombinant Selenoprotein Glutathione Peroxidase 4 (GPX4) (AID 1845192); note: nearly all actives have a fitted effect of over 65% in size
recorded_conditions: recombinant GPX4, GR-coupled NADPH fluorescence, 15 min; series mostly up to 50 µM
Procedure: Assay Provider: Elias S.J. Arner MD PhD. Department of Medical Biochemistry and Biophysics Karolinska Institutet, Solna, Stockholm, Sweden […] 6; Detection; Fluorescence; ViewLux microplate reader, excitation 340 nm and emission 450 nm. […] 8; Detection; Fluorescence; ViewLux microplate reader, excitation 340 nm and emission 450 nm. […] 6. Initial fluorescence readout (t=0) at 340/450 nm was measured using a ViewLux multimodal detector (PerkinElmer, Waltham, MA). […]
Inconclusive results are not listed. The source made the active and inactive calls. Calls come from the whole dose curve; as a rule, active = well fitted inhibition curve with a large enough effect; inconclusive = small, poorly fitted or top-dose-only effect; inactive = flat fitted curve, though single readings scatter.
I would appreciate it if you answered using one of these outcomes: active, inactive

O=C1S/C(=C\c2ccc(OCc3cccc(B(O)O)c3)cc2)C(=O)N1Cc1ccc(F)cc1: inactive
Cc1nc(NC(=O)N2CCC[C@H]2C(N)=O)sc1-c1csc(C(C)(C)C)n1: inactive

Short answer needed: outcome of this test for CN(Cc1ccccc1)C(=O)c1ccc(S(=O)(=O)Nc2ccccc2)cc1 ?
inactive

Short answer needed: outcome of this test for C=C1C(=O)O[C@H]2C[C@H](C)C(/C=C/C(C)=O)=CC[C@H]12 ?
inactive
